Assay: calorie-restriction mimetic ROS inhibitors, yeast – validation compound set, pilot screen (AID 2706);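 also: yeast exposed to compound for one week at 30 degrees C before staining; 100% = mean of all compound wells on the same plate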
Details: S. cerevisiae aging, superoxide DHE fluorescence; at 10 µM; stronger effect = lower value
METRIC: superoxide response (% of plate) (%)

MOLECULE	METRIC	EXPERIMENTAL RESULT
CN1CCN(CCCN2c3ccccc3Sc3ccc(Cl)cc32)CC1	superoxide response (% of plate)	70.1
CN(C)CC/C=C1\c2ccccc2Sc2ccc(Cl)cc21	superoxide response (% of plate)	88.7
CC(=O)Nc1ccc2[nH]c(C)c(CC=C(Cl)Cl)c(=O)c2c1	superoxide response (% of plate)	110
Cc1cc(=O)[nH]c(=S)[nH]1	superoxide response (% of plate)	113
Cn1c(=O)c2[nH]cnc2n(C)c1=O	superoxide response (% of plate)	95.3
O=C(O)c1cc2cc(Cl)cc(Cl)c2oc1=O	superoxide response (% of plate)	113
CCCCCCC(=O)N(O)C1CC(=O)N(Cc2ccccc2)C1=O (configuration not stated)	superoxide response (% of plate)	103
COc1ccc(/C=C/C(=O)c2cc3cccc(OC)c3oc2=O)cc1	superoxide response (% of plate)	107
OCC1CCN(Cc2cn(Cc3ccccc3)nc2-c2cc3ccccc3o2)CC1	superoxide response (% of plate)	99.1
CS(=O)(=O)Nc1cccc(C(=O)CC2(O)C(=O)Nc3ccc(Br)cc32)c1 (configuration not stated)	superoxide response (% of plate)	112
O=c1cc(CN2CCN(c3cccc(Cl)c3)CC2)c2cc(O)c(-c3ccccc3)cc2o1	superoxide response (% of plate)	113
C(=C\c1ccc2ccccc2n1)/c1ccccc1	superoxide response (% of plate)	94.9

###

Entries and their binding (% of control)
Tested on: anti-desmoglein-3 scFv antibody binding to human DSG3
Test: blockers of pathogenic pemphigus antibody–desmoglein-3 binding – biochemical, validation compound set, bead-based, flow cytometry, pilot screen (AID 588368);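 also: signal is the median channel fluorescence of bead-bound GFP antibody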
Details: Protein G beads, DSG3-Fc, scFv-GFP binding, at 10 µM, stronger effect = lower value

MOLECULE	binding (% of control) (%)
COc1ccc2[nH]c(=O)c(CN(C(=O)c3ccco3)C(C)C)cc2c1	101
COc1cc(/C=C/C(=O)CC(=O)/C=C/c2ccc(O)c(OC)c2)ccc1O	129
CCCC(=O)O[C@]1(C(=O)COC(C)=O)CC[C@H]2[C@@H]3C[C@H](F)C4=CC(=O)C=C[C@]4(C)[C@@]3(F)[C@@H](O)C[C@@]21C	105
C/C(=N\NC(=O)C1(C)CC1(Br)Br)c1ccc([N+](=O)[O-])cc1 (stereo not given)	98.5
CC(=O)Oc1cc2oc(=O)cc(C)c2cc1OC(C)=O	101
O=CNC1CCCc2c1[nH]c1ccc(Cl)cc21 (stereo not given)	95.9
CC(C)(C)C(=O)NCCCNc1ccc([N+](=O)[O-])cc1	110
O=C(CCCn1c(=O)oc2ccccc21)N1CCN(c2ccc(F)cc2)CC1	102
COc1cccc(CN2C(=O)N(C(C)C)C(N(O)C(=O)NC(C)C)C2(C)C)c1OC (stereo not given)	97.4
CC1(C)CC(C(CC(=O)N2CCCC2)Cc2ccccc2)CCO1 (stereo not given)	103

###

Test system: anti-desmoglein-3 scFv antibody binding to human DSG3
Experiment: blockers of pathogenic pemphigus antibody–desmoglein-3 binding – biochemical, validation compound set, bead-based, flow cytometry, pilot screen (AID 588368);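 also: signal is the median channel fluorescence of bead-bound GFP antibody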
Settings: Protein G beads, DSG3-Fc, scFv-GFP binding, at 10 µM, stronger effect = lower value
Square brackets hold non-standard residues; d marks the D form. Peptide text beside a SMILES is read from it. ξ: configuration not given here. ξV = CC(C)C(N)C(=O)O
binding (% of control) values by entry

COMPOUND	TARGET ENTITY	binding (% of control) [%]
COc1ccc(CNC(=O)c2c(O)c3cccc4c3n(c2=O)CCC4)cc1	anti-desmoglein-3 scFv antibody binding to human DSG3	99.5
CC1(C)O[C@@H]2C[C@H]3[C@@H]4C[C@H](F)C5=CC(=O)CC[C@]5(C)[C@H]4[C@@H](O)C[C@]3(C)[C@]2(C(=O)CO)O1	anti-desmoglein-3 scFv antibody binding to human DSG3	106
C=C1C2(C(=O)Nc3ccc(SC(F)F)cc3)CCC(C2)C1(C)C (stereo not drawn)	anti-desmoglein-3 scFv antibody binding to human DSG3	101
COc1cc2c(cc1NCc1ccc3c(c1)OCO3)oc1ccccc12	anti-desmoglein-3 scFv antibody binding to human DSG3	103
NS(=O)(=O)c1ccc(CNC(=O)c2cc(-c3ccccc3)nc3ccccc23)cc1	anti-desmoglein-3 scFv antibody binding to human DSG3	98
O=c1ccc2c(o1)/C(=C/C=C(Cl)Cl)CCC2	anti-desmoglein-3 scFv antibody binding to human DSG3	101
S=C(NCc1ccccc1)NCc1cccc(CNC(=S)NCc2ccccc2)c1	anti-desmoglein-3 scFv antibody binding to human DSG3	100
Cc1ccc2nc(N=C(N)N)nc(C)c2c1	anti-desmoglein-3 scFv antibody binding to human DSG3	109
COC(=O)C1=C(C)N(Cc2ccco2)C(=O)/C1=C\c1ccc([N+](=O)[O-])cc1	anti-desmoglein-3 scFv antibody binding to human DSG3	205
CC(C)c1cc(=O)oc2c3c4c(cc12)CCCN4CCC3	anti-desmoglein-3 scFv antibody binding to human DSG3	98.7
CC(=O)NC(C(=O)NCC(N)=O)C(C)C (stereo not drawn) (Ac-[ξV]-Gly-NH2)	anti-desmoglein-3 scFv antibody binding to human DSG3	96.9
C[C@]12CCC3C(CC=C4C[C@@H](O)CC[C@@]43C)C1CCC2[C@]1(C)CCC(=O)O1 (stereo partly drawn)	anti-desmoglein-3 scFv antibody binding to human DSG3	103
COCCN(CCOC)Cc1c(C)[nH]c2c(C)c(C)ccc2c1=O	anti-desmoglein-3 scFv antibody binding to human DSG3	105
c1ccc2[nH]c(-c3cscn3)nc2c1	anti-desmoglein-3 scFv antibody binding to human DSG3	108
O=C(NCCc1c[nH]c2ccccc12)OCCSS(=O)(=O)O	anti-desmoglein-3 scFv antibody binding to human DSG3	99.7
NC(CO)C(=O)NNCc1ccc(O)c(O)c1O (stereo not drawn)	anti-desmoglein-3 scFv antibody binding to human DSG3	60.7
CCc1nc(N)nc(N)c1-c1ccc(Cl)cc1	anti-desmoglein-3 scFv antibody binding to human DSG3	137
COc1ccc2[nH]c3c(=O)n(/N=C/[C@H]4C(C)C=C(C)CC4C)c(=O)[nH]c3c2c1 (stereo partly drawn)	anti-desmoglein-3 scFv antibody binding to human DSG3	98.7
Nc1ccc2nc(Cc3ccccc3)[nH]c2c1	anti-desmoglein-3 scFv antibody binding to human DSG3	98
CC(C)=CC/C=C1\CCC(C(=O)O)C(C(=O)O)C1 (stereo not drawn)	anti-desmoglein-3 scFv antibody binding to human DSG3	103
CCN(CC)C(=O)c1sc(NC(=O)c2c(OC)cccc2OC)c(C#N)c1C	anti-desmoglein-3 scFv antibody binding to human DSG3	97.3
COc1cccc(/C=C/C(=O)c2c(O)cc(C)oc2=O)c1O	anti-desmoglein-3 scFv antibody binding to human DSG3	104
CC(=O)OCC#CCSc1nc2ccccc2n1C	anti-desmoglein-3 scFv antibody binding to human DSG3	94.9

###

Assay: Nile Red efflux blockade in pump-expressing yeast – validation compound set, multiplex, phenotypic, pilot screen (AID 588506);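 also: Nile Red retained in cells so higher fluorescence means more efflux inhibition; 0 = negative control wells and 1 = enniatin B 25 µM full block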
Settings: S. cerevisiae pump-expressing triplex, Nile Red efflux flow cytometry; at 10 µM; the pumps come from Candida albicans
The source made the active and inactive calls.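 The calls were made as follows: active = efflux inhibition above 0.42, the validation set average plus 4 SD; inconclusive = no clear call, values can overlap the other calls; inactive = the rest.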
Possible outcomes: yes (1) (active), no (0) (inactive)

COMPOUND	CLASS LABEL
CCC(C)NCCOCCOc1ccc(Cl)cc1Br (configuration not stated)	no (0)
c1ccc(Cn2nnc3cnccc32)cc1	no (0)
CCOC(=O)C1(Cc2cccc(Cl)c2)CCCN(C2CCN(C(C)=O)CC2)C1 (configuration not stated)	no (0)
CN(C)C(=O)Oc1ccc[n+](C)c1	no (0)
COc1ccccc1C(=O)Nc1cc2cc(Br)ccc2oc1=O	no (0)
CC(NCCc1ccc(O)cc1)C(O)c1ccc(O)cc1 (configuration not stated)	no (0)
COc1cc(C)nc(-n2nc(C)cc2OC)n1	no (0)
CCOC(=O)c1ccc(NC(=S)NCCc2ccccc2F)cc1	yes (1)
Cc1ccc(C(=O)NCCNC(=O)c2ccccc2)cc1	no (0)
CSCC[C@H](NC(=O)OC(C)(C)C)C(=O)N1CCC(C(=O)N[C@@H](C)C(=O)O)CC1	no (0)
O=C(CC(NC(=O)OCc1ccccc1)C(=O)O)OCc1ccccc1 (configuration not stated)	no (0)
C[C@@H]1C[C@H](Nc2ccccc2)c2ccccc2N1C(=O)c1cccnc1	no (0)

###

Assay: cytosolic pH regulators acting via V-ATPase – S. cerevisiae, pHLuorin, HTS validation (AID 504600);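 also: plate controls were DMSO for no effect and reference compound for full effect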
Conditions: V-ATPase proton transport, at 10 µM
The source made the active and inactive calls. Rule as the data show it: active = response above about 15%; inactive = the rest.
Outcome codes: active, inactive

COMPOUND	CLASS LABEL
COc1ccccc1C(=O)Oc1ccc2c(c1)O/C(=C\c1ccncc1)C2=O	inactive
c1ccc2c(c1)CCOC2CNCCCN1CCCCC1 (stereo not drawn)	inactive
COC(=O)C1=C(C)NC(C)=C([N+](=O)[O-])C1c1ccccc1C(F)(F)F (stereo not drawn)	inactive
COc1cc(CC(=O)NCCc2ccc(S(N)(=O)=O)cc2)cc(OC)c1OC	inactive
Cc1coc2c1c(C)cc1oc(=O)c(Cc3ccccc3)c(C)c12	active
COc1ccc(CNC(=O)N[C@H](C(=O)O)C(C)C)cc1OC	inactive
COC(=O)C1=C(C)NC(C)=C(C(=O)OCCN(C)Cc2ccccc2)C1c1cccc([N+](=O)[O-])c1 (stereo not drawn)	inactive
CCN1C(=O)C(CC(=O)Nc2ccc(OC)cc2)N(CCc2ccc(F)cc2)C1=S (stereo not drawn)	inactive
O=C1CC(c2ccc(O)cc2)Oc2cc(O)cc(O)c21 (stereo not drawn)	inactive
CC12CCC(C(=O)NCc3ccccn3)(OC1=O)C2(C)C (stereo not drawn)	inactive
CCc1ccc2oc(=O)cc(CN3CCC(C)CC3)c2c1	active
CN(C)CCCN1c2ccccc2Sc2ccccc21	inactive
COc1ccc2[nH]c3c(c2c1)CCNC3C1CC=C(C)CC1 (stereo not drawn)	inactive
COc1cc(/C=C/C(=O)CC(=O)/C=C/c2ccc(O)c(OC)c2)ccc1O	inactive
O=C(O)CCNC(=O)c1ccccc1	inactive
O=C(NC(=S)Nc1nc(-c2ccccc2)cs1)c1ccco1	inactive
O=c1cnn([C@@H]2O[C@H](CO)[C@@H](O)[C@H]2O)c(=O)[nH]1	inactive
Cc1ccc2[nH]c3c(=O)n(CCc4cnc[nH]4)cnc3c2c1	inactive
COc1ccc(NC(=S)N2CCN(CCN3C(=O)c4cccc5cccc(c45)C3=O)CC2)cc1	inactive
Cc1ccccc1C(=O)NCC(=O)O	active
O=C(O)CCn1cnc2ccccc2c1=O	inactive
Cc1ccccc1C(=O)Nc1ccccc1C(=O)NCC(C)C	inactive
O=C(COc1ccccc1)Nc1ccc2c(c1)C(=O)N(CC1CCCO1)C2=O (stereo not drawn)	inactive
